Measured values drawn from paper PMC10333884 for this set.

Target sequence: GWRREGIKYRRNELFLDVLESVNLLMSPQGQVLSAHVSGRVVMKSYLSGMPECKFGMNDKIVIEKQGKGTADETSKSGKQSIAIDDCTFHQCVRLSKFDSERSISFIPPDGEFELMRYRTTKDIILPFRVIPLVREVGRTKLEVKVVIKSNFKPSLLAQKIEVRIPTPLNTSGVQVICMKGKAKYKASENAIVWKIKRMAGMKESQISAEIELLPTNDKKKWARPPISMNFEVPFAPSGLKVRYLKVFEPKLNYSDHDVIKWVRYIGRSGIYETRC
Non-standard residues stand in square brackets, D forms with d. Residues, ends and D or L forms follow the SMILES beside them. pS = N[C@@H](COP(=O)(O)O)C(=O)O
value-type: Kd (µM)
# output: bare number, implied unit µM

Consider the following illustrative entries.
INSERT INTO assay_data (compound, reading) VALUES
  ('CC[C@H](C)[C@H](NC(=O)[C@@H](NC(=O)[C@@H]1CCCN1C(=O)[C@H](CO)NC(=O)[C@H](CO)NC(=O)[C@H](C)NC(=O)[C@@H]1CCCN1C(=O)[C@H](CCSC)NC(=O)[C@@H]1CCCN1C(=O)[C@H](CCC(N)=O)NC(=O)[C@H](Cc1ccc(O)cc1)NC(=O)[C@@H]1CCCN1C(=O)[C@@H](NC(=O)[C@@H](NC(=O)[C@H](CCSC)NC(C)=O)[C@@H](C)O)[C@@H](C)CC)C(C)C)C(=O)N[C@@H](CS)C(N)=O [PCBP1_179–194 wt] (Ac-MTIPYQPMPASSPVIC-NH2)', 3.7),
  ('CC[C@H](C)[C@H](NC(=O)[C@@H](NC(=O)[C@@H]1CCCN1C(=O)[C@H](CCC(=O)O)NC(=O)[C@H](CO)NC(=O)[C@H](C)NC(=O)[C@@H]1CCCN1C(=O)[C@H](CCSC)NC(=O)[C@@H]1CCCN1C(=O)[C@H](CCC(N)=O)NC(=O)[C@H](Cc1ccc(O)cc1)NC(=O)[C@@H]1CCCN1C(=O)[C@@H](NC(=O)[C@@H](NC(=O)[C@H](CCSC)NC(C)=O)[C@@H](C)O)[C@@H](C)CC)C(C)C)C(=O)N[C@@H](CS)C(N)=O [PCBP1_179–194 E] (Ac-MTIPYQPMPASEPVIC-NH2)', 2.05);

Now, please, on to the next compound.
Task: Return reported Kd. Input compound: CC[C@H](C)[C@H](NC(=O)[C@@H](NC(=O)[C@@H]1CCCN1C(=O)[C@H](COP(=O)(O)O)NC(=O)[C@H](CO)NC(=O)[C@H](C)NC(=O)[C@@H]1CCCN1C(=O)[C@H](CCSC)NC(=O)[C@@H]1CCCN1C(=O)[C@H](CCC(N)=O)NC(=O)[C@H](Cc1ccc(O)cc1)NC(=O)[C@@H]1CCCN1C(=O)[C@@H](NC(=O)[C@@H](NC(=O)[C@H](CCSC)NC(C)=O)[C@@H](C)O)[C@@H](C)CC)C(C)C)C(=O)N[C@@H](CS)C(N)=O [PCBP1_179–194 pS] (Ac-MTIPYQPMPAS[pS]PVIC-NH2)
Result: 0.67
